# System Under Test: T1, human serum albumin (human, UniProt P02768 25-609)
# T1 construct: also called HSA
# Test: SPR, single cycle kinetics, pH 7.4
# pKd per entry
Notebook: values listed as pKd are -log10 of the concentration (mol/L).

Entry M75 sdAb (VHH, also called M75 VHH) VHH: QVQLVESGGGFVQAGGSLRLSCAASGRTFDNYVMAWFRQAPGKEREFVASISGSGSITNYANSVKDRFTISRDSAKNAIYLQMNSLKPEDTALYYCAAGSRRTYYREPKFYPSWGQGTQVTVSS has what pKd?
8.92

Others:
Entry Rh46 sdAb (VHH, also called Rh46 VHH) VHH: QVKLEESGGGLVQAGGSLRLSCTASTRTFSSYIMGWFRQAPGKERELVAAISWSGRMTHYADSVKGRFAISRDNAKNTVYLQMNVLKPEDTAIYSCAADRTTAWGAPRSQYDSWGQGTQVTVSS has what pKd?
7.10

Entry R11 sdAb (VHH, also called R11 VHH) VHH: QVKLEESGGGLVQAGGSLRLSCVGPGFLLRSNTMGWYRQAPGKERELVAFIRPSGLTNYNDAVQGRFTISRDNAKNTVYLQMNALKPEDTAVYYCHTRPPFQRDSWGQGTQVTVSS has what pKd?
7.03
